test: Chemical stability of compound in 0.1 N aqueous HCl buffer assessed as compound remaining at pH 1 at 5 uM measured after 24 hrs by LC-MS/MS analysis; format: physicochemical; settings: pH 1, 24 h
Parameter threshold = 60%. Response is TRUE when Stabilty meets or exceeds it, else FALSE.

Reported Stabilty reaches at least 60% for CC(C)C(NC(=O)[C@H](N)Cc1cn(C)c2ccccc12)C(=O)O.Cl (single isomer, unassigned) ?
TRUE

Reported Stabilty reaches at least 60% for `CCOC(=O)[C@@H](Cc1cn(C)c2ccccc12)NC(=O)[C@@H](N)CCC(N)=O.Cl` ?
TRUE

Reported Stabilty reaches at least 60% for `CCOC(=O)[C@H](N)Cc1cn(C)c2ccccc12.Cl` ?
TRUE

Reported Stabilty reaches at least 60% for `C[C@H](N)C(=O)N[C@H](Cc1cn(C)c2ccccc12)C(=O)O.Cl` ?
FALSE
